All figures here come from ChEMBL document CHEMBL1135058.

System: Plasmodium falciparum
Experiment: In vitro inhibition as IC50 against Plasmodium falciparum by [3H]hypoxanthine uptake
Format: functional, organism-based
Conditions: Plasmodium falciparum; read-out: IC50
ENDPOINT: pIC50
One number for each entry, as −log10 of the molar value.

Some compounds with known pIC50 results, for comparison:
COc1cccc(CN2CCCN(Cc3cccc(OC)c3O)C2c2ccc(N(CCCl)CCCl)cc2C)c1O | 5.92
Cc1cc2c3c(c1-c1c(C)cc4c(C(C)C)c(O)c(O)c(C=N)c4c1O)OC1=C4C(=O)C(O)C(C(C)C)c5cc(C)c(-c6c(C)cc7c(C(C)C)c(O)c(O)c(C=O)c7c6O)c(c54)OC(=C3C(=O)C(O)C2C(C)C)N1 (centres undefined) | 5.18

Give pIC50 for all compounds that follow.
1. O=C1C=CC(=C(c2ccc(O)cc2)c2c(Cl)c(Cl)c(Cl)c(Cl)c2C(=O)O)C=C1
2. COc1cc(C(=O)C(O)c2cc(OC)c(OC)c(OC)c2)cc(OC)c1OC (centres undefined)

Response line:
4.70
4.70

----------
Tested on: Plasmodium falciparum
Test: In vitro inhibition as IC50 against Plasmodium falciparum by [3H]hypoxanthine uptake
Type: functional, organism-based
Conditions: Plasmodium falciparum; read-out: IC50
pIC50: −log10 of the molar value.
Label rule, in plain words: pIC50 of 5 and up is fulfilled, under 5 is not fulfilled.

// below: answered compounds
COc1ccccc1/C=C/C(=O)O | fulfilled
COc1ccc(CC(=O)c2c(O)c3c(c(CC=C(C)C)c2OC)OC(C)(C)CC3)cc1 | fulfilled
CCN(CC)c1ccc(NCC(O)c2cc(Cl)ccc2OC)cc1 (stereo not drawn) | fulfilled
COc1cccc(C(O)C2=CC(=O)c3ccccc3C2=O)c1OC (stereo not drawn) | fulfilled
COc1ccc(C2OCC3(O)C(c4ccc(OC)c(OC)c4)OCC23)cc1OC (stereo not drawn) | fulfilled

In the following, a different compound is considered.
Prompt line: # bool: pIC50 of `COc1ccc(/C(=N\O)c2nccc3cc(OC)c(OC)cc23)cc1OC` >= 5
Response line: not fulfilled
